Measurement Target: Fatty acid synthase (Homo sapiens)
Method Summary: FAS thioesterase domain inhibitors, SAR follow-up, biochemical, kinetic fluorescence, OMFH substrate, round 2, powder samples (AID 652286)
Conditions Used: recombinant FAS-TE, OMFH fluorogenic substrate
Activity calls are given as the source filed them.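 How the source made its calls: active means compounds halving thioesterase enzyme activity at 20 µM or lower; inactive means the rest.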
Thanks in advance; please answer with one of these: active, inactive

Here are 5 molecules together with their reported answers.
INSERT INTO results (molecule, measurement_target, cat) VALUES
  ('CCC(CC)C(=O)Nc1nc(-c2ccc(S(=O)(=O)N(CC)CC)cc2)cs1', 'Fatty acid synthase (Homo sapiens)', 'active'),
  ('CCC(C)C(=O)Nc1nc(-c2ccc(S(=O)(=O)N3CCCC3)cc2)cs1 (configuration not stated)', 'Fatty acid synthase (Homo sapiens)', 'active'),
  ('CCCCC(=O)Nc1nc(-c2ccc(S(=O)(=O)N3CCCCC3C)cc2)cs1 (configuration not stated)', 'Fatty acid synthase (Homo sapiens)', 'active'),
  ('CCCCCCCCCCC[C@H](C[C@@H]1OC(=O)[C@H]1CCCCCC)OC(=O)[C@@H](NC=O)C(C)C', 'Fatty acid synthase (Homo sapiens)', 'active'),
  ('CC(C)CC(=O)Nc1nc(-c2ccc(S(=O)(=O)N3CCCC3)cc2)cs1', 'Fatty acid synthase (Homo sapiens)', 'active');

Test call for this molecule, please: "CC(C)CC(=O)Nc1nc(-c2ccc(S(=O)(=O)N3CCC(C)CC3)cc2)cs1"
inactive

Test call for this molecule, please: "CCCCC(=O)Nc1nc(-c2ccc(S(=O)(=O)N3CCOCC3)cc2)cs1"
active

Test call for this molecule, please: CCC(C)C(=O)Nc1nc(-c2ccc(S(=O)(=O)N3CCCCC3C)cc2)cs1 (configuration not stated)
active

Test call for this molecule, please: "CCCCCC(=O)Nc1nc(-c2ccc(S(=O)(=O)N3CCC(C)CC3)cc2)cs1"
active

Test call for this molecule, please: "CCC(CC)C(=O)Nc1nc(-c2ccc(S(=O)(=O)N3CCC(C)CC3)cc2)cs1"
active

Test call for this molecule, please: "Cn1c(SCC(=O)Nc2ncc(C(F)(F)F)cc2Cl)nnc1-c1ccc(Cl)cc1"
active

Test call for this molecule, please: "CCCCCCC(=O)Nc1nc(-c2ccc(S(=O)(=O)N(CC)CC)cc2)cs1"
active
